target: CXCR3 (Homo sapiens); construct: purchased Promega (in-house HiBiT-GPCR construct library, NanoBRET); assay: NanoBRET screen HiBiT-CXCR3 in HEK293; type: binding; settings: CXCR3; tracer 0.1μM
Sequence (P49682 whole entry): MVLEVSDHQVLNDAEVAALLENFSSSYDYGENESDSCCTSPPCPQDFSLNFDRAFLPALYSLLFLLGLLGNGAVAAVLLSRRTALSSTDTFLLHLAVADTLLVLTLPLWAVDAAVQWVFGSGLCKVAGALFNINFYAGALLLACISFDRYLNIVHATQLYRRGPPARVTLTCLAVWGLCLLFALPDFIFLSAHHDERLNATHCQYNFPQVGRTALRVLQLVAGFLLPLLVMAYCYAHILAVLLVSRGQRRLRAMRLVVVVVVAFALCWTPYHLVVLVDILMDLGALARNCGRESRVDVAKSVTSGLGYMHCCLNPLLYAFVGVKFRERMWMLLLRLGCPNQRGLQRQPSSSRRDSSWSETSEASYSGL
Kind request: treat 1 as inclusive, so NanoBRET Fold Response at 1 or higher is TRUE, anything lower is FALSE.

Example entries begin here.
Quick check, NanoBRET Fold Response >= 1? Cc1nc2n(c(=O)c1CCN1CCC(c3noc4cc(F)ccc34)CC1)CCCC2OC(=O)NCCOCCOCCOCCOCCNC(=O)CCc1ccc2n1[B-](F)(F)[N+]1=C(c3ccc[nH]3)C=CC1=C2 (centres unmarked)
TRUE

Quick check, NanoBRET Fold Response >= 1? `COc1ccccc1N1CCN(CCCCN2C(=O)c3ccc(CNC(=O)CCOCCOCCOCCOCCNC(=O)CCc4ccc5n4[B-](F)(F)[N+]4=C(c6ccc[nH]6)C=CC4=C5)cc3C2=O)CC1`
FALSE

Quick check, NanoBRET Fold Response >= 1? `COc1ccccc1N1CCN(CCCCN2C(=O)c3ccc(CNC(=O)CCOCCNC(=O)c4ccc(CNC(=O)CCc5ccc6n5[B-](F)(F)[N+]5=C(c7ccc[nH]7)C=CC5=C6)cc4)cc3C2=O)CC1`
FALSE

Quick check, NanoBRET Fold Response >= 1? O=C(CCc1ccc2n1[B-](F)(F)[N+]1=C(c3ccc[nH]3)C=CC1=C2)NCc1ccc(C(=O)NCCOCCC(=O)N[C@@H]2CC[C@@]3(O)[C@H]4Cc5ccc(O)c6c5[C@@]3(CCN4CC3CC3)[C@H]2O6)cc1 [Naltrexone-3-NB590]
TRUE

Quick check, NanoBRET Fold Response >= 1? `CC(C)N(CC[C@H](c1ccccc1)c1cc(CCNC(=O)CCOCCOCCOCCOCCNC(=O)CCc2ccc3n2[B-](F)(F)[N+]2=C(c4ccc[nH]4)C=CC2=C3)ccc1O)C(C)C`
TRUE

More entries:
Quick check, NanoBRET Fold Response >= 1? `CC(C)N(CC[C@H](c1ccccc1)c1cc(CCNC(=O)c2ccc(CNC(=O)CCc3ccc4n3[B-](F)(F)[N+]3=C(c5ccc[nH]5)C=CC3=C4)cc2)ccc1O)C(C)C`
TRUE

Quick check, NanoBRET Fold Response >= 1? `O=C(CCOCCOCCOCCOCCNC(=O)CCc1ccc2n1[B-](F)(F)[N+]1=C(c3ccc[nH]3)C=CC1=C2)NCCCN1CCN(C2=Nc3ccccc3Oc3ccc(Cl)cc32)CC1`
TRUE

Quick check, NanoBRET Fold Response >= 1? `Cc1cc2c(s1)Nc1ccccc1N=C2N1CCN(CCCNC(=O)CCOCCOCCOCCOCCNC(=O)CCc2ccc3n2[B-](F)(F)[N+]2=C(c4ccc[nH]4)C=CC2=C3)CC1`
TRUE

Quick check, NanoBRET Fold Response >= 1? `CCCn1c(=O)c2[nH]c(-c3ccc(OCC(=O)NCCNC(=O)CCOCCNC(=O)c4ccc(CNC(=O)CCc5ccc6n5[B-](F)(F)[N+]5=C(c7ccc[nH]7)C=CC5=C6)cc4)cc3)nc2n(CCC)c1=O`
FALSE

Quick check, NanoBRET Fold Response >= 1? `N#CN=C(NCCCOc1cccc(CN2CCCCC2)c1)NCCNC(=O)CCOCCOCCOCCOCCNC(=O)CCc1ccc2n1[B-](F)(F)[N+]1=C(c3ccc[nH]3)C=CC1=C2`
TRUE
